Listing: viability at 18 h, 0.075 µM of selected compounds
- procedure-details: Phototoxicity human CD3 positive cells co-cultured with GFP expressing human HUT78 cells assessed as cell survival at 7.5 x 10^-8 M preincubated 20 mins in photosensitizer media followed by growth in photosensitizer-free media for 30 mins measured 18 hrs after exposure to 5 J/cm2 irradiation by FACS analysis
- Assay type: cell-based
- condition: read-out: Survival
measure: viability at 18 h, 0.075 µM (%)

>  <structure-as-smiles>
C[N+]1=c2cc3c(cc2C(C)(C)CC1)=C(c1ccc(C(=S)N2CCCCC2)s1)c1cc2c4c(c1[Se]3)CCCN4CCC2.[Cl-]

>  <unit-abbrev>
%

>  <experimental-value>
0.4

$$$$
>  <structure-as-smiles>
O=C(c1ccc(C2=c3cc4c5c(c3[Se]c3c2cc2c6c3CCCN6CCC2)CCC[N+]=5CCC4)s1)N1CCCCC1.[Cl-]

>  <unit-abbrev>
%

>  <experimental-value>
62.1

$$$$
>  <structure-as-smiles>
CN1CCC(C)(C)c2cc3c(cc21)[Se]c1cc2c(cc1=C3c1ccc(C(=O)N3CCCCC3)s1)C(C)(C)CC[N+]=2C.[Cl-]

>  <unit-abbrev>
%

>  <experimental-value>
7.2

$$$$
>  <structure-as-smiles>
C[N+]1=c2cc3c(cc2C(C)(C)CC1)=C(c1ccc(C(=O)N2CCCCC2)s1)c1cc2c4c(c1[Se]3)CCCN4CCC2.[Cl-]

>  <unit-abbrev>
%

>  <experimental-value>
4.8

$$$$
>  <structure-as-smiles>
CN1CCC(C)(C)c2cc3c(cc21)[Se]c1cc2c(cc1=C3c1ccc(C(=S)N3CCCCC3)s1)C(C)(C)CC[N+]=2C.[Cl-]

>  <unit-abbrev>
%

>  <experimental-value>
1.5

$$$$
>  <structure-as-smiles>
S=C(c1ccc(C2=c3cc4c5c(c3[Se]c3c2cc2c6c3CCCN6CCC2)CCC[N+]=5CCC4)s1)N1CCCCC1.[Cl-]

>  <unit-abbrev>
%

>  <experimental-value>
5.8

$$$$
